Source of measurements: ChEMBL document CHEMBL1141114

Assay: Maximum plasma concentration at a dose of 1 mg/Kg in rat when given i.v.
Type: ADME, organism-based
Design: dose 1 mg/Kg, route intravenous
Details: iv
Measured Metric: Cmax (ng/mL)
Numbers only here, please. The scale is ng/mL.

Query block: Entry O[C@@H]1[C@H](O)CO[C@H]1n1cc(-c2ccccc2)c2c(Nc3ccc(F)cc3)ncnc21 has what Cmax?
Result block: 523

----------
Test: Maximum time to achieve plasma concentration at a dose of 3 mg/Kg in rat when given orally
Type: ADME, organism-based
Details: po
Measured Metric: Tmax (h)
Numbers only here, please. The scale is h.

Query block: Entry O[C@@H]1[C@H](O)CO[C@H]1n1cc(-c2ccccc2)c2c(Nc3ccc(F)cc3)ncnc21 has what Tmax?
Result block: 3.5
